ASSAY TARGET: DPPI (Homo sapiens, UniProt P53634)
Sequence (P53634 231-394 limits assumed): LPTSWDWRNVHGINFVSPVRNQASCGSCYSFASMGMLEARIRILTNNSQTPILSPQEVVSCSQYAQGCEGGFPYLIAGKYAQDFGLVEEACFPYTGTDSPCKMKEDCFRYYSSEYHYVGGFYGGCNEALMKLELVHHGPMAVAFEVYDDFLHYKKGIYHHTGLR
Sequence (P53634 25-134 limits assumed): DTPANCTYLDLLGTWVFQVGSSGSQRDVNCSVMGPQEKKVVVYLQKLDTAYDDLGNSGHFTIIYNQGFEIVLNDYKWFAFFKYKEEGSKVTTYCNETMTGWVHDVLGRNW
Sequence (P53634 395-463 limits assumed): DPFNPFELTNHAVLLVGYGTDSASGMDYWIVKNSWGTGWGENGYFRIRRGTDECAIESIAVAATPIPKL
PROCEDURE DETAILS: Substrate specificity of human DPPI: hydrolysis of synthetic peptide substrates
Assay type: biochemical
Parameters: Human DPPI is now established to constitute a 200,000 Da glycoprotein with 24,000 Da subunits; from tissue; host or cells: human cadaveric spleen; unit not given here
SETTINGS: substrate concentration 500 μM
Where a SMILES comes first, the peptide text is derived from it. The star is where a group is joined. pNA = O=[N+]([O-])c1ccc(N*)cc1; βNA = c1ccc2cc(N*)ccc2c1
Items are presented alongside their recorded hydrolysis of substrate peptide by human DPPI.
ASSAY READOUT: hydrolysis of substrate peptide by human DPPI

- COMPOUND: "COc1cc(NC(=O)C(CCCN=C(N)N)NC(=O)CN)cc2ccccc12 (centres unmarked)"
  RECORDED MEASUREMENT: 4750
- COMPOUND: "CC(N)C(=O)NC(C)C(=O)NC(C(=O)NC(C)C(=O)Nc1ccc([N+](=O)[O-])cc1)C(C)C (stereo not drawn) [Ala-Ala-Val-Ala-pNA] (H-AAVA-pNA; configuration not given here)"
  RECORDED MEASUREMENT: 120
- COMPOUND: "N[C@@H](Cc1ccccc1)C(=O)Nc1ccc2ccccc2c1"
  RECORDED MEASUREMENT: 0
- COMPOUND: "NCC(=O)N[C@@H](Cc1ccccc1)C(=O)Nc1ccc([N+](=O)[O-])cc1 [Gly-Phe-pNA] (H-Gly-Phe-pNA)"
  RECORDED MEASUREMENT: 380
- COMPOUND: "COc1cc(NC(=O)[C@@H]2CCCN2C(=O)CN)cc2ccccc12"
  RECORDED MEASUREMENT: 0
- COMPOUND: "NCC(=O)N[C@@H](Cc1ccccc1)C(=O)Nc1ccc2ccccc2c1 [Gly-Phe-βNA] (H-Gly-Phe-βNA)"
  RECORDED MEASUREMENT: 4380
- COMPOUND: "C[C@H](N)C(=O)Nc1ccc2ccccc2c1"
  RECORDED MEASUREMENT: 0
- COMPOUND: "N=C(N)NCCCC(NC(=O)OCc1ccccc1)C(=O)Nc1ccc2ccccc2c1 (centres unmarked)"
  RECORDED MEASUREMENT: 0
